From: PubChem BioAssay (NCI)

Tested on: HL-60(TB) leukemia
assay.info: NCI-60 one-dose screen, 48 h (100 = growth as untreated, 0 = no growth, -100 = all killed)
particulars: 10 µM unless noted
The panel holds about 83,000 compounds, 20% with a hit somewhere; the sample as a whole holds those more often.
Hi! Just check whether growth is below 40%. Below gives satisfied, equal or above gives not satisfied.

q: Could you please tell me whether growth recorded for CC1CCN(CCCCCOc2ccc3oc4cc(Cl)ccc4c(=O)c3c2)CC1 is less than 40%?
a: not satisfied

q: Could you please tell me whether growth recorded for Cc1ccc(NC(=O)c2nc(S(C)=O)oc2-c2ccc(F)cc2)cc1Nc1nccc(-c2cccnc2)n1 (centres undefined) is less than 40%?
a: not satisfied

q: Could you please tell me whether growth recorded for COc1ccccc1/C=C1\COc2ccc(O)c(O)c2C1=O is less than 40%?
a: satisfied

q: Could you please tell me whether growth recorded for O=C(/C=C1\C(=O)N(Cc2ccc([N+](=O)[O-])cc2)c2ccccc21)c1ccc(OCCN2CCCC2)cc1 is less than 40%?
a: satisfied

q: Could you please tell me whether growth recorded for Clc1ccc(-c2cc(-c3ccccc3)nc(N3CCN(CCCNc4ccnc5cc(Cl)ccc45)CC3)n2)cc1 is less than 40%?
a: satisfied

q: Could you please tell me whether growth recorded for c1ccc(-c2c(-c3ccccc3)[n+](Cc3ccc4ccccc4c3)c(-c3ccc(-c4nc5ccccc5s4)cc3)n2Cc2ccc3ccccc3c2)cc1 is less than 40%?
a: satisfied

q: Could you please tell me whether growth recorded for O=C(OCc1ccccc1)n1nnc2ccccc21 is less than 40%?
a: not satisfied

q: Could you please tell me whether growth recorded for CC(=O)Nc1cccc(-c2ccc3c(c2)NC(=O)/C3=C\c2ccc[nH]2)c1 is less than 40%?
a: satisfied

q: Could you please tell me whether growth recorded for CCCCOc1cc(C(=O)NCCN(CC)CC)c2ccccc2n1 is less than 40%?
a: not satisfied

* * *

Please respond with reported growth for every item in the list.
Tested on: HCT-15 colon
assay.info: NCI-60 one-dose screen, 48 h (100 = growth as untreated, 0 = no growth, -100 = all killed)
particulars: 10 µM
Compounds without any hit were thinned out: in the full panel of roughly 83,000, 20% have a hit. Calls of active or inactive are those of the source. Rule for the calls: active = growth percent below 10; inactive = the rest.

The compound listed as O=C(O)C1(Br)CC12c1ccccc1-c1ccccc12 (stereo not given) has a reported growth of 101% (inactive)

The compound listed as O=C(NCCNC(=O)c1ccc([As](O)O)cc1)c1ccc([As](O)O)cc1 has a reported growth of 107% (inactive)

The compound listed as COc1cc(CNCCc2ccc(Cl)cc2)cc(OC)c1O has a reported growth of 54.8% (inactive)

The compound listed as CC(=O)C1CCC2C3CC=C4CC(OC(=O)Cc5ccc(N(CCCl)CCCl)cc5)CCC4(C)C3CCC12C (stereo not given) has a reported growth of 99.5% (inactive)

The compound listed as CC(C)(C)[Si](C)(C)OC1[C@@H](O[Si](C)(C)C(C)(C)C)[C@@H](CNC(=O)NC(=O)CF)O[C@H]1n1cnc2c(NC(=O)Nc3ccccc3)ncnc21 (stereo not given in full) has a reported growth of 80.7% (inactive)

The compound listed as C[C@@H]1O[C@@H](O[C@H]2CC[C@@]3(C)[C@H](CCC4[C@@H]3C(O)C[C@]3(C)[C@@H](c5ccc(=O)oc5)CC[C@]43O)C2)[C@H](O)[C@H](O)[C@H]1O (stereo not given in full) has a reported growth of -74.5% (active)

The compound listed as NC(=O)C(Cl)Cl has a reported growth of 97.6% (inactive)

The compound listed as Nc1cccc(CC(=O)Nc2ccc(S(=O)(=O)F)cc2)c1 has a reported growth of 101% (inactive)

The compound listed as Cc1ccc(C[As+](c2ccccc2)(c2ccccc2)c2ccccc2)cc1 has a reported growth of 75.9% (inactive)

The compound listed as CN=C(NN)NN has a reported growth of 104% (inactive)
